Entries and their AIRE transcriptional activation functional score
B1: library; numbered along this chain (parent)
chain: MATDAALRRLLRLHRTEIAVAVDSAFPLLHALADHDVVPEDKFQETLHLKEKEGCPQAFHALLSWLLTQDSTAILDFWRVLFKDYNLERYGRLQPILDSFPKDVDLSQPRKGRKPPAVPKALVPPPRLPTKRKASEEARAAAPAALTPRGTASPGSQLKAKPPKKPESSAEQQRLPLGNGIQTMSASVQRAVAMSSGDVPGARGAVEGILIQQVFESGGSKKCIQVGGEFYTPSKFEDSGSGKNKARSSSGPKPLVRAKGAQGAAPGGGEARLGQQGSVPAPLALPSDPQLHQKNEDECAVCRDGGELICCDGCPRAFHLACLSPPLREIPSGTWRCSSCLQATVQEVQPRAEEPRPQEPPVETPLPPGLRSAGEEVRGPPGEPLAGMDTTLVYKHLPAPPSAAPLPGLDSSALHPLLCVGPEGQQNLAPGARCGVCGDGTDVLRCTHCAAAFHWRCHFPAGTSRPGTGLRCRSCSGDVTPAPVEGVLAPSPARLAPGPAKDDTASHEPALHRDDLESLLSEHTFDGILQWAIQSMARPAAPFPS

variants of: B1; experiment: AIRE transcriptional activation functional score (insulin promoter-GFP; nonsense median 0, synonymous median 1) (normalised score); higher = higher AIRE activity (more reporter activation); conditions: with insulin promoter-GFP reporter in HEK293
ASSAY_ENDPOINT: AIRE transcriptional activation functional score

MUTATION_ID	READOUT_VALUE
L428I	1.22
F230P	0.293
A399K	0.799
Q275S	0.826
E423V	1.2
G435P	1.14
V348N	1.08
R513H	0.0273
G201S	0.809
Q213S	0.639
D76C	0.409
P326V	1.41
Q346H	1.3
D238I	1.27
G408N	0.674
M388P	1.14
A141R	1.02
P286N	0.454
H292W	1.03
G150W	2.25
A505H	-0.421
R465Y	1.39
P492E	0.938
P360R	1.02
G204K	0.976
D70Q	0.436
Q225R	0.916
R465S	1.04
L49C	-0.191
Q157W	0.173
R513T	1.17
A138H	0.328
L414P	0.785
S402P	1.07
E329Y	1.42
R494P	0.439
S135L	1.04
P56M	-0.903
G263R	0.812
P115C	0.977
S278K	1.28
A261T	1.07
P200D	0.545
F318T	1.31
E51P	-0.179
Q346N	0.737
